Test system: IGROV1 ovarian
Assay: NCI-60 one-dose screen, 48 h (100 = growth as untreated, 0 = no growth, -100 = all killed)
Details: 10 µM unless noted
About 83,000 compounds went through this panel and 20% of them were active in at least one assay; those are over-represented in the sample as a whole. Calls of active or inactive are those of the source. The calls were made as follows: active = growth percent below 10; inactive = the rest.
Measurement Type: growth

>  <Compound>
Nc1c(C(=O)Nc2cccc3cnccc23)sc2nc3c(cc12)CN(Cc1ccccc1)CC3

>  <Measured On>
IGROV1 ovarian

>  <Reported Result>
99.9% (inactive)

$$$$
>  <Compound>
O=C(CSc1nc2ccccc2[nH]1)NCc1ccccc1

>  <Measured On>
IGROV1 ovarian

>  <Reported Result>
102% (inactive)

$$$$
>  <Compound>
CCOC(=O)c1cc(C(=O)c2ccc(OC)c(OC)c2)n2c1ccc1ccccc12

>  <Measured On>
IGROV1 ovarian

>  <Reported Result>
58.6% (inactive)

$$$$
>  <Compound>
O=C1c2ccccc2C(=O)c2c([N+](=O)[O-])ccc(Cl)c21

>  <Measured On>
IGROV1 ovarian

>  <Reported Result>
71.5% (inactive)

$$$$
>  <Compound>
COc1ccc(Cc2cnc(NC(=O)c3ccc4c(c3)OCCO4)s2)cc1

>  <Measured On>
IGROV1 ovarian

>  <Reported Result>
20.2% (inactive)

$$$$
>  <Compound>
CCOC(=O)c1ccc2c(c1)ncn2-c1ccc(NC(=O)Nc2cccc(C)c2)cc1

>  <Measured On>
IGROV1 ovarian

>  <Reported Result>
98.9% (inactive)

$$$$
>  <Compound>
COc1cccc2c1c1nc3cc(C)c(C)cc3nc1n2CCN(C)C

>  <Measured On>
IGROV1 ovarian

>  <Reported Result>
5.59% (active)

$$$$
>  <Compound>
C#Cc1cccc(NC(=O)c2cccc(NC(=O)CCl)c2)c1

>  <Measured On>
IGROV1 ovarian

>  <Reported Result>
-53.5% [8.25 µM] (active)

$$$$
>  <Compound>
Cc1c(C(=O)NCCC(=O)NO)sc2ncnc(Nc3ccc(F)c(Cl)c3)c12

>  <Measured On>
IGROV1 ovarian

>  <Reported Result>
106% (inactive)

$$$$
>  <Compound>
COc1cc2nc(-c3ccc(Cl)cc3)cc(OCCCN3CCOCC3)c2cc1OC

>  <Measured On>
IGROV1 ovarian

>  <Reported Result>
35.6% (inactive)

$$$$
>  <Compound>
CN1CCN(c2ccc(NC3=C(Cl)C(=O)c4ncccc4C3=O)cc2C(F)(F)F)CC1

>  <Measured On>
IGROV1 ovarian

>  <Reported Result>
-37.6% (active)

$$$$
>  <Compound>
c1ccc2c(-c3nccs3)c[nH]c2c1

>  <Measured On>
IGROV1 ovarian

>  <Reported Result>
101% (inactive)

$$$$
>  <Compound>
NS(=O)(=O)c1ccc(CCN2C(=O)C3C(C2=O)C2(Cl)C(Cl)=C(Cl)C3(Cl)C2(Cl)Cl)cc1 (stereo unspecified)

>  <Measured On>
IGROV1 ovarian

>  <Reported Result>
97.3% (inactive)

$$$$
>  <Compound>
Cc1cc2c(C(=O)NCC#N)cccc2n1-c1nc2c(c(NCc3ccccc3)n1)CCCC2

>  <Measured On>
IGROV1 ovarian

>  <Reported Result>
-22.1% (active)

$$$$
>  <Compound>
O=C(Nc1ccc(F)cc1)Nc1ccc(NC(=O)c2cc(Cl)nc3ccccc23)cc1

>  <Measured On>
IGROV1 ovarian

>  <Reported Result>
52.6% (inactive)

$$$$
>  <Compound>
O=C(O)c1ccc2c(c1)C(=O)N(Cc1ccccc1)C2=O

>  <Measured On>
IGROV1 ovarian

>  <Reported Result>
106% (inactive)

$$$$
>  <Compound>
O=C1Nc2ccccc2/C1=C\c1c(-c2ccc(F)cc2)nc2ccccn12

>  <Measured On>
IGROV1 ovarian

>  <Reported Result>
57.1% (inactive)

$$$$
>  <Compound>
COc1ccc(-c2nc3sccn3c2/C=C/C(=O)c2ccc3c(c2)OCO3)cc1

>  <Measured On>
IGROV1 ovarian

>  <Reported Result>
85.1% (inactive)

$$$$
>  <Compound>
O=C1OC(Cc2ccccc2)C1c1ccccc1 (stereo unspecified)

>  <Measured On>
IGROV1 ovarian

>  <Reported Result>
101% (inactive)

$$$$
>  <Compound>
O=c1c2c(c(=O)n1O)c1c3ccc[nH]c3nc1c1nc3[nH]cccc3c12

>  <Measured On>
IGROV1 ovarian

>  <Reported Result>
63% (inactive)

$$$$
>  <Compound>
CC(=O)OC[C@]12CC[C@@H](C(=O)CBr)[C@@H]1[C@H]1CC[C@@H]3[C@@]4(C)CC[C@H](OC(C)=O)C(C)(C)[C@@H]4CC[C@@]3(C)[C@]1(C)CC2

>  <Measured On>
IGROV1 ovarian

>  <Reported Result>
-1.69% (active)

$$$$

====

Test system: KM12 colon
Assay: NCI-60 one-dose screen, 48 h (100 = growth as untreated, 0 = no growth, -100 = all killed)
Details: 10 µM unless noted
Method: Growth inhibition of the KM12 human tumor cell line is measured as a screen for anti-cancer activity. Cells are grown in 96 well plates and exposed to the test compound for 48 hours. Compounds are tested at a single concentration, which is 10^-5 M for most compounds. The reported endpoint is percent growth (GI% or GIPRCNT), where numbers from 0 - 100% represent growth inhibition, and numbers from -100% - 0 represent cell death. For example, a value of 40 represents 60% growth inhibition. […]
This is part of a sample that, as a whole, favours compounds with a hit. Of some 83,000 tested, about 20% had one in any assay.
Classification by growth follows these ranges: zone 1: < 20%; zone 2: ≥ 20% and < 80%; zone 3: ≥ 80%

>  <Compound>
COc1cc(/C=C/c2cc(O)c(C(C)=O)c(O)c2)cc2c1O[C@]1(C)CC[C@@H](O)C(C)(C)[C@H]1C2

>  <Measured On>
KM12 colon

>  <Label Class>
zone 2

$$$$
>  <Compound>
CCCOC(=O)N[C@H]1CCc2cc(OC)c(OC)c(OC)c2-c2ccc(SC)c(=O)cc21

>  <Measured On>
KM12 colon

>  <Label Class>
zone 1

$$$$
>  <Compound>
CN1[C@@H]2CC[C@H]1/C(=C\c1ccccc1)C(=O)/C2=C/c1ccccc1

>  <Measured On>
KM12 colon

>  <Label Class>
zone 2

$$$$
>  <Compound>
Nc1nc(Nc2ccccc2SSc2ccccc2Nc2nc(N)nc(-c3cccs3)n2)nc(-c2ccsc2)n1

>  <Measured On>
KM12 colon

>  <Label Class>
zone 2

$$$$
>  <Compound>
COC1=CC(=O)c2ccccc2C1=O

>  <Measured On>
KM12 colon

>  <Label Class>
zone 3

$$$$
>  <Compound>
O=C(/C(=C/c1ccc([N+](=O)[O-])cc1)SCc1ccc(F)cc1)c1ccc(F)cc1

>  <Measured On>
KM12 colon

>  <Label Class>
zone 2

$$$$
>  <Compound>
Oc1c(Cl)cc(Cl)c(Cl)c1CNCCNCc1c(O)c(Cl)cc(Cl)c1Cl

>  <Measured On>
KM12 colon

>  <Label Class>
zone 2

$$$$
>  <Compound>
COC(=O)c1ccc2c(c1)[n+](=O)c(C(C)=O)c(C(F)(F)F)n2[O-]

>  <Measured On>
KM12 colon

>  <Label Class>
zone 1

$$$$
>  <Compound>
O=C(CSc1nc2sc3c(c2c(=O)n1-c1ccc(Cl)cc1)CCCC3)Nc1nc(-c2cccc(Br)c2)cs1

>  <Measured On>
KM12 colon

>  <Label Class>
zone 3

$$$$
>  <Compound>
Cc1ccc(NC(=O)Cc2ccc(/C=C/C(=O)c3ncc[nH]3)cc2)cc1

>  <Measured On>
KM12 colon

>  <Label Class>
zone 1

$$$$
>  <Compound>
CCCCCN1C=C/C(=C\C(=O)N(C)c2ccccc2Br)c2ccccc21

>  <Measured On>
KM12 colon

>  <Label Class>
zone 3

$$$$
>  <Compound>
C#CCNC(=O)c1cccc2c1cc(C)n2-c1nc2c(c(NCc3ccccc3)n1)CCCC2

>  <Measured On>
KM12 colon

>  <Label Class>
zone 1

$$$$
>  <Compound>
O=S(=O)(NCCNc1nccc(-c2c(-c3cccc(F)c3)nc3sccn23)n1)c1ccc(Br)cc1

>  <Measured On>
KM12 colon

>  <Label Class>
zone 2

$$$$
>  <Compound>
COc1cc(F)c(/C=C/c2cc(/C=C/c3cc(OC)c(OC)cc3F)on2)cc1OC

>  <Measured On>
KM12 colon

>  <Label Class>
zone 2

$$$$
>  <Compound>
CCN1CCN(CCNc2nccc(-c3c(-c4cccc(OC)c4)nc4occn34)n2)S1(=O)=O

>  <Measured On>
KM12 colon

>  <Label Class>
zone 3

$$$$
>  <Compound>
CC1(C)CC(=O)C2=C(C1)N(c1ccc(F)cc1F)C(N)=C(C#N)C2c1cc(Br)ccc1F (stereo not given)

>  <Measured On>
KM12 colon

>  <Label Class>
zone 3

$$$$
>  <Compound>
COc1cc(/C(C)=C(\c2ccc(Cl)cc2)c2ccc(OCCN3CCCC3)cc2)ccc1F

>  <Measured On>
KM12 colon

>  <Label Class>
zone 2

$$$$
>  <Compound>
Cc1cccc(C)c1N=c1oc2ccc(Cl)cc2nc1-c1ccccc1O

>  <Measured On>
KM12 colon

>  <Label Class>
zone 3

$$$$
>  <Compound>
O=C(NNc1nc2c(F)cccc2n2cccc12)c1cnccn1

>  <Measured On>
KM12 colon

>  <Label Class>
zone 2

$$$$
>  <Compound>
COc1ccc(C(=O)C2C(C#N)C(C#N)C3c4ccccc4C=CN23)cc1 (stereo not given)

>  <Measured On>
KM12 colon

>  <Label Class>
zone 3

$$$$
